Tested on: A549
assay.notes: SRB antiproliferative assay, A549
Type: cell-based, human
condition.summary: Homo sapiens, A549, 96 h treatment, mean ± SEM, read-out: IC50 A549
pIC50: −log10 of the molar value.
parameter: pIC50

COc1ccc(-c2cc3cc(F)ccc3c(=O)[nH]2)cc1 [compound 3] :: < 4.30

Note: attention shifts to another entry.
pIC50 on A549 for O=c1[nH]c(-c2ccc(F)cc2)cc2cc(F)ccc12 [compound 5] is < 4.30

====

Tested on: MCF-7
assay.notes: SRB antiproliferative assay, MCF-7
Assay type: cell-based, human
condition.summary: 96 h treatment, mean ± SEM, read-out: IC50 MCF-7 (prescreen)
Listed here are compounds together with their documented IC50.
The answer is to be given in nM; state only the numeric part.

COc1cccc(-c2cc3ccc(F)cc3c(=O)[nH]2)c1 :: 680

Noted for COc1cccc(-c2cc3cc(F)ccc3c(=O)[nH]2)c1 : its IC50 reads 750
